System: Colo205
Experiment: Reverse Phase Protein Analysis (RPPA)
Format: cell-based, human
Settings: % change from DMSO (matched cell line)
assay readout: Avg(Tuberin TSC2 Y1571) (%)

1) Cc1cnc(Nc2ccc(F)cc2Cl)nc1-c1c[nH]c(C(=O)N[C@H](CO)c2cccc(Cl)c2)c1 [Vx-11e] | −9.45
2) CC(C)Nc1cc(-c2c[nH]c(C(=O)N[C@H](CO)c3cccc(Cl)c3)c2)c(Cl)cn1 | −3.48
3) O=C(Nc1ccc2[nH]nc(-c3ccncc3)c2c1)[C@@H]1CCN(CC(=O)N2CCN(c3ccc(-c4ncccn4)cc3)CC2)C1 | −1.38
4) Cn1nccc1Nc1nccc(-c2ccn([C@H](CO)c3ccc(Cl)c(F)c3)c(=O)c2)n1 | 0.66
